These entries and their values trace back to paper PMC6792352.

System: GH3-TRE-Luc cell line
PROTOCOL_CONDITIONS: read-out: AC50 (uM) modified / 1000; Tox21_110001=Tox21_300112; viability, 1 nM T3 present, 24 h
PROPERTY_LABEL: CC50 (µM)
Entry rule: numbers only, all in µM.

Ask | Output reported CC50 of the compound O=c1[nH]cc(F)c(=O)[nH]1 on GH3-TRE-Luc cell line.
Reply | 30.2

---

Tested on: GH3-TRE-Luc cell line
PROTOCOL_CONDITIONS: read-out: AC50 (uM) modified / 1000; Tox21_110001=Tox21_110005; viability, 1 nM T3 present, 24 h
PROPERTY_LABEL: CC50
Be sure to follow the number with its unit.

Ask | Please give the documented CC50 of Oc1cccc2cccnc12 [8-Quinolinol salicylic acid (1:1)]
Reply | 10.3 µM

---

System: GH3-TRE-Luc cell line
PROTOCOL_CONDITIONS: read-out: AC50 (uM) modified / 1000; Tox21_110001=Tox21_303371; viability, 1 nM T3 present, 24 h
PROPERTY_LABEL: CC50 (µM)
Reply with just the number (in µM).

Ask | Give the value of CC50 reported for the following: CCN(CCN)c1cccc(C)c1
Reply | 69.9

---

MEASUREMENT_DESCRIPTION: in vitro
PROTOCOL_CONDITIONS: rat, gh3-tre-luc cells, AC50 (uM) modified / 1000, Tox21_110001=Tox21_201255; viability, 1 nM T3 present, 24 h
PROPERTY_LABEL: CC50 at 24 h

Ask | Quickly give me recorded CC50 at 24 h for CCN(CC)N=O [N-Nitrosodiethylamine]
Reply | > 90 µM

---

MEASUREMENT_DESCRIPTION: in vitro
PROTOCOL_CONDITIONS: rat, gh3-tre-luc cells, AC50 (uM) modified / 1000, Tox21_110001=Tox21_300657; viability, 1 nM T3 present, 24 h
PROPERTY_LABEL: CC50 at 24 h (µM)
Report only the number, with the unit µM understood.

Ask | State its CC50 at 24 h: O=S1OCC2C(CO1)C1(Cl)C(Cl)=C(Cl)C2(Cl)C1(Cl)Cl (stereo not shown) [Endosulfan]
Reply | 37.5

---

MEASUREMENT_DESCRIPTION: in vitro
PROTOCOL_CONDITIONS: rat, gh3-tre-luc cells, AC50 (uM) modified / 1000
Counter-ions that a name gives are not always drawn.
PROPERTY_LABEL: CC50 at 24 h

Worked cases, CC50 at 24 h given:
| MOLECULE | RESULT |
| --- | --- |
| CCCCOCCOC(=O)COc1nc(Cl)c(Cl)cc1Cl | > 90 µM |
| CC(C)(C)c1cc(C(C)(C)C)c(O)c(C(C)(C)C)c1 | 27.4 µM |
| OCc1ccccn1 | > 50 µM |
| O=C(Nc1ccccc1)OCC(CN1CCCCC1)OC(=O)Nc1ccccc1 (stereo not drawn) [Diperodon hydrochloride] | 10.5 µM |
| CCCCCCC(=O)CCCCCC/C=C/C[C@@H](O)[C@H](O)[C@@](N)(CO)C(=O)O | > 50 µM |

Ask | Fill in CC50 at 24 h for record NC(=O)c1c(Cl)cccc1Cl [2,6-Dichlorobenzamide]
Reply | > 90 µM

Ask | Write down CC50 at 24 h measured for item CC1(C)[C@H]2CC[C@](C)(C2)[C@H]1O [(1R)-endo-(+)-Fenchyl alcohol]
Reply | > 90 µM

Ask | Give the reported CC50 at 24 h for this molecule. O=C(O)Cc1sc(-c2ccccc2)nc1-c1ccc(Cl)cc1
Reply | > 50 µM

Ask | Could you please provide reported CC50 at 24 h for CCn1nc(C(=O)O)c(=O)c2cc3c(cc21)OCO3 ? Thanks!
Reply | > 20 µM

Ask | Return reported CC50 at 24 h. Input molecule: CC(O)C#CC(C)O (stereo not drawn)
Reply | 50.2 µM

Ask | Let me know recorded CC50 at 24 h for CSCC[C@H](NC(=O)[C@H](Cc1c[nH]c2ccccc12)NC(=O)CCNC(=O)OC(C)(C)C)C(=O)N[C@@H](CC(=O)O)C(=O)N[C@@H](Cc1ccccc1)C(N)=O , thanks.
Reply | > 50 µM

Ask | Return CC50 at 24 h (reported value) for this molecule: O=C(CCCN1CCC(n2c(O)nc3ccccc32)CC1)c1ccc(F)cc1
Reply | > 20 µM

Ask | Annotate the molecule CC(=O)c1ccc2c(c1)[C@H](NC(=O)c1ccc(F)cc1)[C@@H](O)C(C)(C)O2 with its measured CC50 at 24 h.
Reply | 51.8 µM

Ask | Give the reported CC50 at 24 h for this molecule. CCCCCCCCCCCCCCCCCC(=O)OCC(O)CO (stereo not drawn) [Glycerol 1-monostearate]
Reply | > 50 µM

Ask | Write down CC50 at 24 h measured for item C1=C\CC/C=C/CC/C=C/CC/1
Reply | > 90 µM

Ask | Provide one value: measured CC50 at 24 h of CCCC[C@@H](CC)COC(=O)c1ccccc1C(=O)OC[C@@H](CC)CCCC [Di(2-ethylhexyl) phthalate]
Reply | > 90 µM

Ask | Please give measured CC50 at 24 h of the following entry: COc1ccc(CCN(C)CCCC(C#N)(c2ccc(OC)c(OC)c2)C(C)C)cc1OC (stereo not drawn) [Verapamil hydrochloride]
Reply | 24.5 µM

Ask | // fetch CC50 at 24 h given entry CC(C)C(=O)OCC(C)(C)C(OC(=O)C(C)C)C(C)C (stereo not drawn)
Reply | > 90 µM

---

Consider the following molecules and their measured CC50 at 24 h readings.
MEASUREMENT_DESCRIPTION: in vitro
PROTOCOL_CONDITIONS: rat, gh3-tre-luc cells, AC50 (uM) modified / 1000
Where a name gives a salt, the structure may show the parent alone.

Solved entries (count: 2):
| MOLECULE | CC50 at 24 h |
| --- | --- |
| C=CC(=O)OCC(CO)(COCC(COC(=O)C=C)(COC(=O)C=C)COC(=O)C=C)COC(=O)C=C [Dipentaerythritol pentaacrylate] | 1.74 µM |
| SCCc1cnccn1 | > 90 µM |

Ask | Give CC50 at 24 h for CC(C)O
Reply | > 100 µM

Ask | State, in one line, measured CC50 at 24 h of CCN(CC)CCNC(=O)c1ccc(N)cc1 [Procainamide hydrochloride]
Reply | > 90 µM

---

Test system: GH3-TRE-Luc cell line
PROTOCOL_CONDITIONS: read-out: AC50 (uM) modified / 1000; Tox21_110001=Tox21_303075; viability, 1 nM T3 present, 24 h
PROPERTY_LABEL: CC50 (µM)
Report the figure in µM without appending any unit label.

Ask | Tell me CC50 reported for c1ccc(Nc2cccc3ccccc23)cc1
Reply | 61.1

---

MEASUREMENT_DESCRIPTION: in vitro
PROTOCOL_CONDITIONS: rat, gh3-tre-luc cells, AC50 (uM) modified / 1000, Tox21_110001=Tox21_301918; viability, 1 nM T3 present, 24 h
PROPERTY_LABEL: CC50 at 24 h

Ask | Consider the compound COP(=S)(OC)Oc1cc(Cl)c(Br)cc1Cl and give its recorded CC50 at 24 h.
Reply | > 90 µM

---

MEASUREMENT_DESCRIPTION: in vitro
PROTOCOL_CONDITIONS: rat, gh3-tre-luc cells, AC50 (uM) modified / 1000, Tox21_110001=Tox21_202792; viability, 1 nM T3 present, 24 h
PROPERTY_LABEL: CC50 at 24 h

Ask | Please report CC50 at 24 h for the following compound: Clc1cc2c(cc1Cl)Oc1cc(Cl)c(Cl)cc1O2
Reply | > 0.3 µM

---

Test system: GH3-TRE-Luc cell line
PROTOCOL_CONDITIONS: read-out: AC50 (uM) modified / 1000; Tox21_110001=Tox21_300056; viability, 1 nM T3 present, 24 h
PROPERTY_LABEL: CC50 (µM)
Could you give me the number in µM? Just the number is fine.

Ask | Lab note: GH3-TRE-Luc cell line assay, enter CC50 for CC(C)(c1ccccc1)c1ccc(O)cc1 here
Reply | 51

---

MEASUREMENT_DESCRIPTION: in vitro
PROTOCOL_CONDITIONS: rat, gh3-tre-luc cells, AC50 (uM) modified / 1000
Structures can show the parent of a compound that is named as a salt.
Listed here: items and their measured CC50 at 24 h.

Here is how some compounds turned out for CC50 at 24 h.
| COMPOUND | CC50 at 24 h |
| --- | --- |
| O=[N+]([O-])c1ccc(CCO)cc1 | > 90 µM |
| C=C1CC/C=C(\C)CC[C@@H]2[C@@H]1CC2(C)C | > 90 µM |
| CCCCc1ccccc1 | > 90 µM |
| COc1ccc2nc(NC(=O)Nc3ccccc3)sc2c1 | > 50 µM |
| CN1CCC(Nc2ncc3ncnc(Nc4ccc(F)c(Cl)c4)c3n2)CC1 [Falnidamol dihydrochloride] | 11.7 µM |

Ask | Report CC50 at 24 h, nothing else, for this compound: O=C(O)c1cc(O)c2c(c1)C(=O)c1cccc(O)c1C2=O
Reply | > 90 µM

Ask | Tell me measured CC50 at 24 h for CC(C)Oc1ccc2c(=O)c(-c3ccccc3)coc2c1 please.
Reply | > 50 µM

Ask | Kindly indicate its recorded CC50 at 24 h. Item: CCOC(=O)NC(=S)Nc1ccccc1NC(=S)NC(=O)OCC [Thiophanate]
Reply | > 90 µM

Ask | Using known records, supply CC50 at 24 h for O=S(=O)(NS(=O)(=O)C(F)(F)F)C(F)(F)F
Reply | > 90 µM

Ask | Provide one value: measured CC50 at 24 h of COC(=O)NC(=S)Nc1ccccc1NC(=S)NC(=O)OC [Thiophanate-methyl]
Reply | > 90 µM
